Assay: Half life in mouse plasma
Type: ADME, cell-free
OBSERVATION_TYPE: half-life (min)
Answers are plain numbers, in min.

(Q) Returns the measured half-life for the input compound. Input: CCCCCCNC(=O)n1nc(C)cc1C(F)(F)F
(A) 9

====

Molecular target: Acid ceramidase (Homo sapiens, UniProt Q13510)
Sequence (Q13510 whole entry): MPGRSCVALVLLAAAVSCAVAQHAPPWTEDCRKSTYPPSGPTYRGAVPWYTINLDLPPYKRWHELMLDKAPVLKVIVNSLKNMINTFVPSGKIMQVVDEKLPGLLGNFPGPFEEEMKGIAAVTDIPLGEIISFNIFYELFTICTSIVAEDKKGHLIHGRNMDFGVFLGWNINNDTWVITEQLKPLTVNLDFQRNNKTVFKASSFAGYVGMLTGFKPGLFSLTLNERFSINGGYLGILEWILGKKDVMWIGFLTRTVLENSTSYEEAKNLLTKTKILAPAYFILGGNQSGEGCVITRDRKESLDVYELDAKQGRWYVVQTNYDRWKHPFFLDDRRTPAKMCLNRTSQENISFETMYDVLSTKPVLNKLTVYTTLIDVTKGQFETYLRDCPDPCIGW
Test: Inhibition of human acid ceramidase using Rbm14-12 fluorogenic substrate incubated for 1 hr by fluorescence assay
Settings: read-out: IC50
Record form. Attribute: pIC50. Fill in for each entry.
Numbers only, as −log10 of the molar value.

Consider the following illustrative entries.
MOLECULE_SMILES: O=C(NCCCCc1ccccc1)n1cc(-c2ccc(Cl)cc2)oc1=O
TESTED_SYSTEM: Acid ceramidase (Homo sapiens, UniProt Q13510)
pIC50: 7.08
//
MOLECULE_SMILES: CCCCCNC(=O)n1cc(-c2ccccc2)oc1=O
TESTED_SYSTEM: Acid ceramidase (Homo sapiens, UniProt Q13510)
pIC50: 7.41
//
MOLECULE_SMILES: O=C(NCCCCc1ccccc1)n1cc(-c2cnccn2)oc1=O
TESTED_SYSTEM: Acid ceramidase (Homo sapiens, UniProt Q13510)
pIC50: 7.49
//
MOLECULE_SMILES: COc1ccc(-c2cn(C(=O)NCCCCc3ccccc3)c(=O)o2)cc1
TESTED_SYSTEM: Acid ceramidase (Homo sapiens, UniProt Q13510)
pIC50: 6.40
//
MOLECULE_SMILES: O=C(NCCCCc1ccccc1)n1cc(-c2nccs2)oc1=O
TESTED_SYSTEM: Acid ceramidase (Homo sapiens, UniProt Q13510)
pIC50: 7.23

Moving on to another molecule below.
(Q) Returns the measured pIC50 for the input molecule. Input: O=C(NCCCCc1ccccc1)n1c(-c2ccc(Cl)cc2)coc1=O
(A) 8.30

====

Test: Half life in pH 7 0.01M PBS buffer at 2 uM by LC/MS-MS analysis
Assay type: physicochemical
OBSERVATION_TYPE: half-life at 2 µM (min)
Numbers only, in min.

(Q) Returns the measured half-life at 2 µM for the input compound. Input: O=C(NCCCCc1ccccc1)n1c(-c2ccccc2)coc1=O
(A) 10

====

Record form. Attribute: solubility kinetic at 1 h, 250 µM. Fill in for each entry.
Assay: Kinetic solubility in pH 7.4 PBS buffer at 250 uM incubated for 1 hr by UPLC/MS analysis
Format: physicochemical
Details: read-out: Kinetic_solubility

MOLECULE_SMILES: O=C(NCCCCc1ccccc1)n1cc(-c2ccccn2)oc1=O
solubility kinetic at 1 h, 250 µM: < 1 µM
//
MOLECULE_SMILES: O=C(NCCCCc1ccccc1)n1cc(-c2ccccc2)oc1=O
solubility kinetic at 1 h, 250 µM: < 1 µM
//
MOLECULE_SMILES: CCCCCNC(=O)n1cc(-c2ccc(F)cc2C2CCN(C)CC2)oc1=O
solubility kinetic at 1 h, 250 µM: > 250 µM
//
MOLECULE_SMILES: CC(C)CNC(=O)n1cc(-c2ccccc2)oc1=O
solubility kinetic at 1 h, 250 µM: < 1 µM
//
MOLECULE_SMILES: CCCCCNC(=O)n1cc(-c2ccccc2)oc1=O
solubility kinetic at 1 h, 250 µM: < 1 µM

Moving on to another molecule below.
(Q) Returns the measured solubility kinetic at 1 h, 250 µM for the input molecule. Input: O=C(NCCCCc1ccccc1)n1cc(-c2ccncc2)oc1=O
(A) < 1 µM
